# pKd per record follows
Molecular target: wild type human RORγt ligand binding domain (RORyt LBD) (Homo sapiens, UniProt P51449)
Construct: His-tag (N); TurboTEV protease cleavage site (ENLYFQG) (N)
Assay: RORγt ThermoFluor assay (thermal shift, binding affinity KD)
Scale explanation: pKd corresponds to minus log10 of a concentration expressed in moles per litre.

Solved cases (3 shown):
Lab note: Cc1ccc(C(O)(c2ccc3nc(N4CCC4)c(Cc4ccc(C(F)(F)F)cc4)c(Cl)c3c2)c2cnnn2C)c(C)n1 (single isomer, unassigned) [Example 140c] gave pKd of 9.82

In plain terms, COc1nc2ccc(C(O)(c3cc(C)nc(C)c3)c3cnnn3C)cc2c(Cl)c1Cc1ccc(C(F)(F)F)cc1 (single isomer, unassigned) [Example 84b] has a documented pKd of 6.74

Lab note: measured pKd of COc1nc2ccc(C(O)(c3cncn3C)C3CCOCC3)cc2c(C#N)c1Cc1ccc(-n2cccn2)cc1 (centres unmarked) was 6.96

Now consider a different compound.
pKd for Cc1cc(C(O)(c2ccc(Cl)cc2)c2cncn2C)cc2c(Cl)c(Cc3ccc(-n4cccn4)cc3)c(N3CCC3)nc12 (single isomer, unassigned) [Example 136c] is 7.72

---

Target: wild type human RORγt LBD (Homo sapiens, UniProt P51449)
Construct: expressed in transfected cells; host or cells: HEK293T
Assay: RORγt (LBD) Reporter Assay (GAL4-luciferase, HEK293T cells)
Type: cell-based
Details: HEK-293T, read-out: RORγt (LBD) Reporter Assay, % inhibition @ 6 µM, 6 µM compound concentration
Catalogue of inhibition at 6 µM values
Don't forget the unit after the number, please.

Reported inhibition at 6 µM for COc1nc2ccc(C(O)(c3ccc(C)nc3C)c3cnnn3C)cc2c(Cl)c1Cc1ccc(N(C)C)cc1 (single isomer, unassigned) [Example 24b] was 92%

Continuing:
Note to self: inhibition at 6 µM recorded for COc1nc2ccc(C(O)(c3sc(C)nc3C)c3cnnn3C)cc2c(Cl)c1Cc1ccc(-n2cccn2)cc1 (single isomer, unassigned) [Example 21b] was 99%

// field: inhibition at 6 µM; key: CC(=O)N1CCC(C(O)(c2ccccc2)c2ccc3nc(Cl)c(Cc4cncnc4)c(OC(F)F)c3c2)CC1 (single isomer, unassigned) [Example 73b] ; value = 35%

// sample COc1c(Cc2ccccc2)c(C(F)(F)F)nc2ccc(C(O)(c3ccc(Cl)cc3)c3cncn3C)cc12 (racemic) [Example 101a] , its inhibition at 6 µM was 96%

Field inhibition at 6 µM (entry COc1nc2ccc(C(O)(c3ccccc3)C3CCN(C(C)=O)CC3)cc2c(Cl)c1Cc1ccc(-n2cncn2)cc1 (single isomer, unassigned) [Example 18b] ) reads 99%

# inhibition at 6 µM (compound: COc1ccc(C(O)(c2cccnc2)c2ccc3nc(OC)c(Cc4ccc(-n5cccn5)cc4)c(Cl)c3c2)cc1 (stereo not drawn) ) is 99%

---

In this section, each of the compounds is paired with its reported pIC50.
Target: wild type human RORγt LBD (Homo sapiens, UniProt P51449)
Construct: expressed in transfected cells; host or cells: HEK293T
Assay: RORγt (LBD) Reporter Assay (GAL4-luciferase, HEK293T cells)
Type: cell-based
Conditions: HEK293T cells
Friendly reminder that pIC50 comes from taking -log10 of the concentration in mol/L.

Please fill in: pIC50 reported for CN(C)c1nc2ccc(C(O)(c3ccc(C(F)(F)F)nc3)c3cncn3C)cc2c(Cl)c1Cc1ccc(-n2cccn2)cc1 (stereo not drawn) [Example 132] = 7.35

Next:
pIC50 recorded for this compound, COc1ccc(C(O)(c2cccnc2)c2ccc3nc(OC)c(Cc4ccc(-n5cccn5)cc4)c(Cl)c3c2)cc1OC (single isomer, unassigned) [Example 159b] , is 6.43

pIC50 measured on Cn1cncc1C(O)(c1ccc(C(F)(F)F)nc1)c1ccc2nc(N3CC(O)C3)c(Cc3ccc(-n4cccn4)cc3)c(Cl)c2c1 (single isomer, unassigned) [Example 134b] = 6.38

Input Cn1cncc1C(O)(c1ccc(C(F)(F)F)nc1)c1ccc2nc(N3CC(F)(F)C3)c(Cc3ccc(-n4cccn4)cc3)c(Cl)c2c1 (single isomer, unassigned) [Example 135c] . Output pIC50: 7.11

Briefly, pIC50 measured for Cc1ccc(C(O)(c2ccc3nc(N4CCC4)c(Cc4ccc(C(F)(F)F)cc4)c(Cl)c3c2)c2cnnn2C)c(C)n1 (stereo not drawn) [Example 140a] : 7.66

Sample COc1nc2ccc(C(O)(c3ccc(C)nc3C)C3CN(C(=O)OC(C)(C)C)C3)cc2c(Cl)c1Cc1ccc(C(F)(F)F)cc1 (stereo not drawn) [Example 125] ; pIC50 observed: 6.54

---

Target: wild type human RORγt LBD (Homo sapiens, UniProt P51449)
Construct: expressed in transfected cells; host or cells: HEK293T
Test: RORγt (LBD) Reporter Assay (GAL4-luciferase, HEK293T cells)
Format: cell-based
Conditions: 6 µM compound concentration; HEK293T cells; 6 µM
Quick reference: RORγt (LBD) Reporter Assay, % inhibition @ 6 µM of the listed items.
Give the value in % but do not write % after it.

Some solved entries appear below for comparison.
The molecule listed as COc1nc2ccc(C(O)(c3ccc(F)cc3)c3cccnc3)cc2c(Cl)c1Cc1ccc(-n2cccn2)cc1 (single isomer, unassigned) [Example 158c] shows RORγt (LBD) Reporter Assay, % inhibition @ 6 µM equal to 100

Consider Cc1ccc(C(O)(c2ccc3nc(NC4CC4)c(Cc4ccc(C(F)(F)F)cc4)c(Cl)c3c2)c2cnnn2C)c(C)n1 (single isomer, unassigned) [Example 143c] . Its measured RORγt (LBD) Reporter Assay, % inhibition @ 6 µM is 102

Entry Cn1cncc1C(O)(c1ccc(Cl)cc1)c1ccc2nc(N3CCC3)c(Cc3ccc(-n4cccn4)cc3)c(Cl)c2c1 (single isomer, unassigned) [Example 138c] ; RORγt (LBD) Reporter Assay, % inhibition @ 6 µM = 96

Value of RORγt (LBD) Reporter Assay, % inhibition @ 6 µM reported for the molecule COc1nc2ccc(C(O)(c3oc(C)nc3C)c3cnnn3C)cc2c(Cl)c1Cc1ccc(C(F)(F)F)cc1 (single isomer, unassigned) [Example 156c] is 99

According to the records, this molecule Cc1ccc(C(O)(c2ccc3nc(Cl)c(Cc4ccc(C(F)(F)F)cc4)c(NC4CC4)c3c2)c2cnnn2C)c(C)n1 (single isomer, unassigned) [Example 144b] displays RORγt (LBD) Reporter Assay, % inhibition @ 6 µM of 69

From here, focus on the item given below.
Reported RORγt (LBD) Reporter Assay, % inhibition @ 6 µM for Cc1ccc(C(O)(c2ccc3nc(N4CCC4)c(Cc4ccc(-n5cccn5)cc4)c(Cl)c3c2)c2cnnn2C)c(C)n1 (single isomer, unassigned) [Example 141b] was 20

---

Target: wild type human RORγt LBD (Homo sapiens)
Construct: expressed in transfected cells; host or cells: HEK293T
Experiment: RORγt (LBD) Reporter Assay (GAL4-luciferase, HEK293T cells)
Format: cell-based
Details: HEK293T cells; value after the comma with ∼, > or < could not be included in the average
measure name: IC50 (nM)
Response body: numeric value in nM, unit text excluded.

Documented IC50 of COc1nc2ccc(C(O)(c3ccccc3)C3CCN(C(C)=O)CC3)cc2c(Cl)c1Cc1ccc(-n2ccnc2)cc1 (stereo not drawn) [Example 16c] : 20

Looking up CCc1nc2ccc(C(O)(c3cnnn3C)c3cnc(C)n3C)cc2c(Cl)c1Cc1ccc(C(F)(F)F)cc1 (single isomer, unassigned) [Example 25c] , I found its IC50 recorded as 2.1

get_value(item= COc1nc2ccc(C(O)(c3sc(C)nc3C)c3cnnn3C)cc2c(Cl)c1Cc1ccc(-n2cccn2)cc1 (stereo not drawn) [Example 21a] , readout=IC50) returns 6

Further cases:
The molecule COc1nc2ccc(C(O)(c3cnnn3C)c3cnc(C)n3C)cc2c(Cl)c1Cc1ccc(C(F)(F)F)nc1 (single isomer, unassigned) [Example 43b] showed IC50 equal to 10

---

Biological target: wild type human RORγt LBD (Homo sapiens, UniProt P51449)
Construct: expressed in transfected cells; host or cells: HEK293T
Sequence (P51449 258-518): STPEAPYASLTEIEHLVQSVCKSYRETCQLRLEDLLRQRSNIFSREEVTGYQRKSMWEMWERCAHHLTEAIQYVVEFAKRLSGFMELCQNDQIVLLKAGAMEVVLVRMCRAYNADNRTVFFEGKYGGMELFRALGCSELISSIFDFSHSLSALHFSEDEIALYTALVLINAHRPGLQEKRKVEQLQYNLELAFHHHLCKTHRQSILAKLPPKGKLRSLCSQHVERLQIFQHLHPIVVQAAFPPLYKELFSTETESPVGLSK
Assay: RORγt (LBD) Reporter Assay (GAL4-luciferase, HEK293T cells)
Type: cell-based
Settings: 6 µM compound concentration; HEK293T cells; 6 µM
measure name: RORγt (LBD) Reporter Assay, % inhibition @ 6 µM (%)
I only need the number, in %, no unit after it.

Some compounds with known RORγt (LBD) Reporter Assay, % inhibition @ 6 µM results, for comparison:
Reported RORγt (LBD) Reporter Assay, % inhibition @ 6 µM for Cn1cncc1C(O)(c1ccc(C(F)(F)F)nc1)c1ccc2nc(N3CCOCC3)c(Cc3ccc(-n4cccn4)cc3)c(Cl)c2c1 (single isomer, unassigned) [Example 146c] was 92

# compound Cn1cncc1C(O)(c1ccc(C(F)(F)F)nc1)c1ccc2nc(N3CCCC3)c(Cc3ccc(-n4cccn4)cc3)c(Cl)c2c1 (single isomer, unassigned) [Example 145c] ; its RORγt (LBD) Reporter Assay, % inhibition @ 6 µM = 95

Kindly consider the entry below.
The recorded RORγt (LBD) Reporter Assay, % inhibition @ 6 µM for COc1nc2ccc(C(N)(c3ccc(C(F)(F)F)nc3)c3cncn3C)cc2c(Cl)c1Cc1ccccc1 (single isomer, unassigned) [Example 120c] is 66
